Target: Kv1.5 (Homo sapiens, UniProt P22460)
Sequence (P22460 whole entry): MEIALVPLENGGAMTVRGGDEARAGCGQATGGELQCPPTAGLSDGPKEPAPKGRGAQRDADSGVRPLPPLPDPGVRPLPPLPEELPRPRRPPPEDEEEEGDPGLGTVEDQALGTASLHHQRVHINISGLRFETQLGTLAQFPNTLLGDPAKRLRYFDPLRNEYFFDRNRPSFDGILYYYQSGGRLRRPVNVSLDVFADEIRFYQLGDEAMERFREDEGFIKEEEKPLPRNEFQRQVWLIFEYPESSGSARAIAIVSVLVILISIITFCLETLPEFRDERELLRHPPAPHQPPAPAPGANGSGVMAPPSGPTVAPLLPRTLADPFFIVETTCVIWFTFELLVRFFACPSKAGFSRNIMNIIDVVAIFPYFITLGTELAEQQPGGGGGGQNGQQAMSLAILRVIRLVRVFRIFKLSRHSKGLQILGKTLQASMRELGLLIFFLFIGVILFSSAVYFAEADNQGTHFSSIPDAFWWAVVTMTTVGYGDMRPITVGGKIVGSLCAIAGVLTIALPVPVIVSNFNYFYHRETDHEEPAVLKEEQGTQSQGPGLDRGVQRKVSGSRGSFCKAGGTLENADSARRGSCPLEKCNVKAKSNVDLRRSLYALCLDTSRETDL
Test: Patch-clamp inhibition of cloned ion channel current in transfected HEK cells: Kv1.5
Details: steady-state current, -80 mV to +60 mV
pIC50: −log10 of the molar value. Counter-ions that a name gives are not always drawn.
parameter_measured: pIC50

Below, 5 compounds whose answers are already recorded.
Recorded pIC50 (compound Cc1nc2c(OCCCc3ccc(Cl)cc3Cl)cccn2c1N [Compound 26, DIHYDROCHLORIDE] ): 6.10

Recorded pIC50 (compound Cc1cn2ccc(C)c(OCCCc3ccc(Cl)cc3Cl)c2n1 [Compound 14, MONOHYDROCHLORIDE] ): 6.15

Recorded pIC50 (compound Clc1ccc(CCCOc2cccn3cc(-c4ccccc4)nc23)c(Cl)c1 [Compound 5, MONOHYDROCHLORIDE] ): 3.77

Recorded pIC50 (compound Cc1cn2cccc(OCCCC3CCCCC3)c2n1 [Compound 9, MONOHYDROCHLORIDE] ): 6.00

Recorded pIC50 (compound FC(F)(F)c1cn2cccc(OCCCc3ccc(Cl)cc3Cl)c2n1 [Compound 15, MONOHYDROCHLORIDE] ): 7.00

a = Cc1nc2c(OCCCc3ccc(Cl)cc3Cl)cccn2c1C(=O)O
b = CCOC(=O)c1c(C)nc2c(OCC3(c4ccccc4)CC3)cccn12
Enquiry: Looking at recorded values for pIC50, does a or b come in lower? # reply format: chosen label
Return: a
(a: 4.74, b: 6.00)

a = Cc1cn2cccc(OCCCc3ccccc3)c2n1 [Compound 2, MONOHYDROCHLORIDE]
b = Clc1ccc(CCCOc2cccn3c4c(nc23)CCCC4)c(Cl)c1
Enquiry: I need your help: which of the pair a , b has higher pIC50? # reply format: chosen label
Return: b
(b: 6.22, a: 5.40)
